Reference for the values: patent US20250092039A1

Kindly state IC50 for each of the entries shown.
# target-entity: KRAS-G12V/RAF1 (Homo sapiens (Human), UniProt P01116, G12V)
# Sequence (P01116-2 other isoform, or with tags, fused parts or gaps G12V): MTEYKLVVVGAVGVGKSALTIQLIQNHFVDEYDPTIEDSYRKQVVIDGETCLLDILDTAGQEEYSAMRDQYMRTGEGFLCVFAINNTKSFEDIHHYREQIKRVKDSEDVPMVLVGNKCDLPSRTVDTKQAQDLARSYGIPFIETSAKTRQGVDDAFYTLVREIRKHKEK
# assay-comment: KRAS/RAF1 binding inhibition assay (AlphaScreen)

Report IC50 for CCc1cccc2cc(O)cc(-c3ncc4c(N5CCC[C@@](C)(O)C5)nc(OCC5(CN6CCC(OC7CC8(CCN(c9ccc%10c(c9)CN(C9CCC(=O)NC9=O)C%10=O)CC8)C7)CC6)CC5)nc4c3F)c12 (some centres unmarked) please.
> 200 nM

Report IC50 for CCc1c(F)ccc2cc(O)cc(-c3ncc4c(N5CCC[C@]6(CCO6)C5)nc(OCC5(CN6CCC7(CCC(N8CCN(c9ccc%10c(c9)CN([C@H]9CCC(=O)NC9=O)C%10=O)CC8)CC7)CC6)CC5)nc4c3F)c12 please.
< 20 nM

Report IC50 for CCc1c(F)ccc2cc(O)cc(-c3ncc4c(N5CCCC6(CCO6)C5)nc(OCC5(CN6CCC(F)(CN7CCN(c8ccc9c(c8)CN([C@H]8CCC(=O)NC8=O)C9=O)CC7)CC6)CC5)nc4c3F)c12 (some centres unmarked) please.
20 to 200 nM

Report IC50 for CCc1cccc2cc(O)cc(-c3ncc4c(N5CCC[C@@](C)(O)C5)nc(OCC5(CN6CCC(CN7CCN(c8ccc9c(c8)CN([C@H]8CCC(=O)NC8=O)C9=O)CC7)CC6)CC5)nc4c3F)c12 please.
20 to 200 nM

Report IC50 for CCc1c(F)ccc2cc(O)cc(-c3ncc4c(N5CCC[C@]6(CCO6)C5)nc(OCC5(CN6CCC(CN7CCN(c8ccc9c(c8)CN([C@H]8CCC(=O)NC8=O)C9=O)CC7)CC6)CC5)nc4c3F)c12 please.
20 to 200 nM
